# Tested on: 885512-296-R-J2-PDC complex spheroid viability
# Test Protocol: Anticancer human tumor 885512-296-R-J2-PDC patient-derived breast carcinoma cell line growth inhibition; active means viability on the fitted dose curve at most 10% of control; inactive means the rest
# Conditions Used: second compound 0.1 µM; first compound 3 µM
API: response.call in active, inactive

[in] For COc1cc(C2c3cc4c(cc3C(OC3OC5COC(C)OC5C(O)C3O)C3COC(=O)C23)OCO4)cc(OC)c1O (centres undefined) + NC1CC1c1ccc(-c2cccc(O)c2)cc1 , which call appears in the assay record?
[out] active

[in] Just curious, what result did NS(=O)(=O)OCC1CC(n2ccc3c(NC4CCc5ccccc54)ncnc32)CC1O (centres undefined) + NC1CC1c1ccc(-c2cccc(O)c2)cc1 get here?
[out] active

[in] For Nc1ccccc1NC(=O)c1ccc(CNC(=O)OCc2cccnc2)cc1 + NC1CC1c1ccc(-c2cccc(O)c2)cc1 , which call appears in the assay record?
[out] active

[in] Lab log entry: CCN(c1cc(-c2ccc(CN3CCOCC3)cc2)cc(C(=O)NCc2c(C)cc(C)[nH]c2=O)c1C)C1CCOCC1 + NC1CC1c1ccc(-c2cccc(O)c2)cc1 — outcome as called in the assay?
[out] inactive

====

# System: 885512-296-R-J2-PDC complex spheroid viability
# Test Protocol: Anticancer human tumor 885512-296-R-J2-PDC cell line growth inhibition; active = viability on the fitted dose curve at most 10% of control; inactive = the rest;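 further: spheroids exposed to agents for 7 days before viability read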
# Conditions Used: second compound 1 µM; first compound 0.1 µM
Form entry, call: pick from T for active, F for inactive

[in] Please indicate how the test categorized COc1ccc([C@@H](O)c2cc(-c3ncnc4cc(N5CCOCC5)ccc34)c(F)cc2Cl)nn1 + NC1CCC(NC2CC2c2ccccc2)CC1 .
[out] F

[in] # fetch the recorded call for O=C(C=Cn1cnc(-c2cc(C(F)(F)F)cc(C(F)(F)F)c2)n1)NNc1cnccn1 + NC1CCC(NC2CC2c2ccccc2)CC1 here
[out] T

[in] Dear all, I need the recorded test outcome for Nc1ncn(C2CC(O)C(CO)O2)c(=O)n1 (stereo unspecified) + NC1CCC(NC2CC2c2ccccc2)CC1 , thank you.
[out] F

[in] Which outcome was assigned to COc1cc(Nc2ncc3c(n2)-c2ccc(Cl)cc2C(c2c(F)cccc2OC)=NC3)ccc1C(=O)O + NC1CC1c1ccc(-c2cccc(O)c2)cc1 in this test?
[out] F

[in] What was the test verdict on CC(C)CC(NC(=O)CNC(=O)c1cc(Cl)ccc1Cl)B1OC(=O)CC(CC(=O)O)(C(=O)O)O1 (stereo unspecified) + NC1CCC(NC2CC2c2ccccc2)CC1 ?
[out] T

[in] Per the assay record, what outcome was assigned to CC(C)c1c(-c2ccccc2)nc2c(C#N)c[nH]n2c1=O + NC1CC1c1ccc(-c2cccc(O)c2)cc1 ?
[out] F

[in] Give the logged outcome of this assay for the following compound: CC(C)CC(NC(=O)C(Cc1ccccc1)NC(=O)c1cnccn1)B(O)O (stereo unspecified) + NC1CC1c1ccc(-c2cccc(O)c2)cc1
[out] T

[in] Identify the outcome logged in this assay for the compound shown: CC1(C)CCC(CN2CCN(c3ccc(C(=O)NS(=O)(=O)c4ccc(NCC5CCOCC5)c([N+](=O)[O-])c4)c(Oc4cnc5[nH]ccc5c4)c3)CC2)=C(c2ccc(Cl)cc2)C1 + NC1CC1c1ccc(-c2cccc(O)c2)cc1
[out] F

[in] Which outcome did this test record for the compound CC(C)CC(NC(=O)C(Cc1ccccc1)NC(=O)c1cnccn1)B(O)O (stereo unspecified) + NC1CCC(NC2CC2c2ccccc2)CC1 ?
[out] T

[in] Please indicate how the test categorized CC1(C)CCC(CN2CCN(c3ccc(C(=O)NS(=O)(=O)c4ccc(NCC5CCOCC5)c([N+](=O)[O-])c4)c(Oc4cnc5[nH]ccc5c4)c3)CC2)=C(c2ccc(Cl)cc2)C1 + NC1CCC(NC2CC2c2ccccc2)CC1 .
[out] F

[in] Outcome logged for CC(C)CC(NC(=O)CNC(=O)c1cc(Cl)ccc1Cl)B1OC(=O)CC(CC(=O)O)(C(=O)O)O1 (stereo unspecified) + NC1CC1c1ccc(-c2cccc(O)c2)cc1 in this assay:
[out] T

[in] Could you kindly confirm the outcome this assay logged for O=C(c1cc(Cc2n[nH]c(=O)c3ccccc23)ccc1F)N1CCN(C(=O)C2CC2)CC1 + NC1CCC(NC2CC2c2ccccc2)CC1 ?
[out] F

[in] Short answer needed: outcome of this test for Cn1ncnc1C1c2n[nH]c(=O)c3cc(F)cc(c23)NC1c1ccc(F)cc1 (stereo unspecified) + NC1CC1c1ccc(-c2cccc(O)c2)cc1 ?
[out] F

[in] Please let me know the test result on file for O=C(C=Cn1cnc(-c2cc(C(F)(F)F)cc(C(F)(F)F)c2)n1)NNc1cnccn1 + NC1CC1c1ccc(-c2cccc(O)c2)cc1 .
[out] T

[in] Status in this test for CC(C)c1c(-c2ccccc2)nc2c(C#N)c[nH]n2c1=O + NC1CCC(NC2CC2c2ccccc2)CC1 ?
[out] F

[in] Kindly provide the recorded test outcome for the following compound: CC[C@@]1(O)C(=O)OCc2c1cc1n(c2=O)Cc2cc3c(CN(C)C)c(O)ccc3nc2-1 + NC1CCC(NC2CC2c2ccccc2)CC1
[out] T

====

# Test system: 885512-296-R-J2-PDC complex spheroid viability
# Test Protocol: Anticancer human tumor 885512-296-R-J2-PDC cell line growth inhibition; active = viability on the fitted dose curve at most 10% of control; inactive = the rest;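 further: spheroids exposed to agents for 7 days before viability read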
# Conditions Used: second compound 0.1 µM; first compound 0.316 µM
Pick from active, inactive when you respond.

[in] State the result this test recorded for O=C(C=Cn1cnc(-c2cc(C(F)(F)F)cc(C(F)(F)F)c2)n1)NNc1cnccn1 + NC1CC1c1ccc(-c2cccc(O)c2)cc1 .
[out] active

[in] Could you please tell me the result logged for COc1ccc([C@@H](O)c2cc(-c3ncnc4cc(N5CCOCC5)ccc34)c(F)cc2Cl)nn1 + NC1CCC(NC2CC2c2ccccc2)CC1 in this assay?
[out] inactive

[in] Record lookup: outcome of this test for COc1ccc([C@@H](O)c2cc(-c3ncnc4cc(N5CCOCC5)ccc34)c(F)cc2Cl)nn1 + NC1CC1c1ccc(-c2cccc(O)c2)cc1 ?
[out] inactive

[in] I'd appreciate the recorded outcome for O=C(c1cc(Cc2n[nH]c(=O)c3ccccc23)ccc1F)N1CCN(C(=O)C2CC2)CC1 + NC1CC1c1ccc(-c2cccc(O)c2)cc1 from this test.
[out] inactive

[in] Write down the call the test reported for this molecule. Item: CC(C)c1c(-c2ccccc2)nc2c(C#N)c[nH]n2c1=O + NC1CCC(NC2CC2c2ccccc2)CC1
[out] inactive

[in] Name the outcome recorded for CC1(C)CCC(CN2CCN(c3ccc(C(=O)NS(=O)(=O)c4ccc(NCC5CCOCC5)c([N+](=O)[O-])c4)c(Oc4cnc5[nH]ccc5c4)c3)CC2)=C(c2ccc(Cl)cc2)C1 + NC1CCC(NC2CC2c2ccccc2)CC1 in the assay.
[out] inactive

====

Exercise: state measured viability, T/C for each of the compounds provided.
# Tested on: 885512-296-R-J2-PDC complex spheroid viability
# Test Protocol: Anticancer human tumor 885512-296-R-J2-PDC cell line growth inhibition;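 further: spheroids exposed to agents for 7 days before viability read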
# Conditions Used: second compound 3.16 µM; first compound 0.0316 µM; stronger effect = lower value
Please state the figure in %; there is no need to write the unit.

[in] Given the entry Cn1ncnc1C1c2n[nH]c(=O)c3cc(F)cc(c23)NC1c1ccc(F)cc1 (configuration not stated) + NC1CC1c1ccc(-c2cccc(O)c2)cc1 , report its measured viability, T/C.
[out] 46.7

[in] viability, T/C for O=C(C=Cn1cnc(-c2cc(C(F)(F)F)cc(C(F)(F)F)c2)n1)NNc1cnccn1 + NC1CC1c1ccc(-c2cccc(O)c2)cc1 ?
[out] 2.71

[in] Which value of viability, T/C has been reported for CC[C@@]1(O)C(=O)OCc2c1cc1n(c2=O)Cc2cc3c(CN(C)C)c(O)ccc3nc2-1 + NC1CCC(NC2CC2c2ccccc2)CC1 in the records?
[out] 2.51

[in] Name the recorded viability, T/C for COc1ccc([C@@H](O)c2cc(-c3ncnc4cc(N5CCOCC5)ccc34)c(F)cc2Cl)nn1 + NC1CC1c1ccc(-c2cccc(O)c2)cc1 .
[out] 108

[in] Given the entry CC1COCCN1c1cc(-c2ccnn2C)c2ccnc(-c3ccn[nH]3)c2n1 (configuration not stated) + NC1CCC(NC2CC2c2ccccc2)CC1 , report its measured viability, T/C.
[out] 3.3

[in] I'd like to know its viability, T/C. The compound in question is CC(C)c1c(-c2ccccc2)nc2c(C#N)c[nH]n2c1=O + NC1CCC(NC2CC2c2ccccc2)CC1
[out] 111

[in] Quick one: viability, T/C of Cn1ncnc1C1c2n[nH]c(=O)c3cc(F)cc(c23)NC1c1ccc(F)cc1 (configuration not stated) + NC1CCC(NC2CC2c2ccccc2)CC1 ?
[out] 44.5

====

# System: 885512-296-R-J2-PDC complex spheroid viability
# Test Protocol: Anticancer human tumor 885512-296-R-J2-PDC cell line growth inhibition;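 further: spheroids exposed to agents for 7 days before viability read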
# Conditions Used: second compound 0.1 µM; first compound 0.316 µM; stronger effect = lower value
Flag rule - viability, T/C less than 20% flags Yes; the remaining entries get No.

[in] Is 20% strictly greater than the compound's reported viability, T/C? compound: O=C(c1cc(Cc2n[nH]c(=O)c3ccccc23)ccc1F)N1CCN(C(=O)C2CC2)CC1 + NC1CCC(NC2CC2c2ccccc2)CC1
[out] No

[in] Please determine if O=C(C=Cn1cnc(-c2cc(C(F)(F)F)cc(C(F)(F)F)c2)n1)NNc1cnccn1 + NC1CCC(NC2CC2c2ccccc2)CC1 is below 20% in terms of viability, T/C.
[out] Yes

[in] Lab note: viability, T/C threshold 20%. Does this compound come in strictly under it? CC1COCCN1c1cc(-c2ccnn2C)c2ccnc(-c3ccn[nH]3)c2n1 (stereo unspecified) + NC1CCC(NC2CC2c2ccccc2)CC1
[out] Yes

[in] In the record for CC1(C)CCC(CN2CCN(c3ccc(C(=O)NS(=O)(=O)c4ccc(NCC5CCOCC5)c([N+](=O)[O-])c4)c(Oc4cnc5[nH]ccc5c4)c3)CC2)=C(c2ccc(Cl)cc2)C1 + NC1CC1c1ccc(-c2cccc(O)c2)cc1 , is viability, T/C less than 20%?
[out] No

[in] I wonder whether CC1COCCN1c1cc(C2(S(C)(=N)=O)CC2)nc(-c2ccnc3[nH]ccc23)n1 (stereo unspecified) + NC1CC1c1ccc(-c2cccc(O)c2)cc1 has viability, T/C below 20%. Can you tell?
[out] No

[in] Check if viability, T/C falls below 20% for COc1cc(Nc2ncc3c(n2)-c2ccc(Cl)cc2C(c2c(F)cccc2OC)=NC3)ccc1C(=O)O + NC1CC1c1ccc(-c2cccc(O)c2)cc1 .
[out] No
